Task for the reader: assign each of the following molecules its reported viability, T/C.
- System: 435261-313-R-J1-PDC tumor spheroid viability;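 further: spheroids exposed to compounds for 7 days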
- Assay Details: Anticancer human tumor 435261-313-R-J1-PDC patient-derived colon adenocarcinoma cell line growth inhibition [PI3K]
- Experimental Setup: second compound 0.0316 µM; first compound 0.1 µM; stronger effect = lower value; spheroids with HUVEC and MSC
Give bare numbers, in %.

Answered cases to consult:
>  <Molecule>
CC1(C)CCC(CN2CCN(c3ccc(C(=O)NS(=O)(=O)c4ccc(NCC5CCOCC5)c([N+](=O)[O-])c4)c(Oc4cnc5[nH]ccc5c4)c3)CC2)=C(c2ccc(Cl)cc2)C1 + Cc1nc(NC(=O)N2CCCC2C(N)=O)sc1-c1ccnc(C(C)(C)C(F)(F)F)c1

>  <Value Reported>
81.4

$$$$
>  <Molecule>
Cn1ncnc1[C@H]1c2n[nH]c(=O)c3cc(F)cc(c23)N[C@@H]1c1ccc(F)cc1 + CC(Nc1ccc2c(c1)OCCn1cc(N3C(=O)OCC3C(F)F)nc1-2)C(N)=O

>  <Value Reported>
40.4

$$$$
>  <Molecule>
CC1(C)CCC(Nc2ncc(C(F)(F)F)c(-c3c[nH]c4c(P(C)(C)=O)c(C#N)ccc34)n2)CN1 (stereo not given) + Cc1nc(NC(=O)N2CCCC2C(N)=O)sc1-c1ccnc(C(C)(C)C(F)(F)F)c1

>  <Value Reported>
45.9

$$$$

Go through the list and state viability, T/C for each entry.
1. CCN1CCN(Cc2ccc(Nc3ncc(F)c(-c4cc(F)c5nc(C)n(C(C)C)c5c4)n3)nc2)CC1 + CC(Nc1ncnc2nc[nH]c12)c1cc2cccc(Cl)c2c(=O)n1-c1ccccc1
2. CC1(C)CCC(Nc2ncc(C(F)(F)F)c(-c3c[nH]c4c(P(C)(C)=O)c(C#N)ccc34)n2)CN1 (stereo not given) + COc1c(OCCCN2CCOCC2)ccc2c3n(c(=NC(=O)c4cnc(N)nc4)nc12)CCN3

Response:
60.1
32.6
